test system: MYO3A; settings: concentration: 1 μM,replicates: in singlicate; n = 1;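 note: KINOMEscan kinase panel screen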
Quick reference for %Inh among some molecules
VALUE_KIND: %Inh (%)

molecule=CN(c1cccc(CNc2nc(Nc3ccc4c(c3)CC(=O)N4)ncc2C(F)(F)F)c1)S(C)(=O)=O study_system=MYO3A unit_text=% readout_value=0
molecule="COc1cccc(C2=C(Nc3cccc(Cl)c3)C(=O)NC2=O)c1 [SB-341556]" study_system=MYO3A unit_text=% readout_value=0
molecule=O=C(Nc1cccc(Oc2ccc3nccn3n2)c1)Nc1cccc(C(F)(F)F)c1 study_system=MYO3A unit_text=% readout_value=0
molecule=Cn1ccc2ncnc(Oc3ccc(NC(=O)Nc4cnn(C(C)(C)C)c4)c(Cl)c3)c21 study_system=MYO3A unit_text=% readout_value=1

====

test system: SNARK; construct: gene NUAK2; details: concentration: 1 μM,replicates: in singlicate; n = 1
Entry flag: Fulfilled if %Inh reaches 8%; Not fulfilled if it does not.

compound=CC(=O)c1c(-c2ccncc2)[nH]c(-c2ccncc2)c1C category="Not fulfilled"
compound="COC(=O)c1cccc(NC(=O)NC2CCN(c3ccnc(Nc4cc(OC)c(OC)c(OC)c4)n3)C2)c1 (stereo not drawn)" category=Fulfilled
compound=FC(F)(F)c1cc(Br)cc(Nc2nccc(-c3cnn4ncccc34)n2)c1 category=Fulfilled
compound=Cc1n[nH]c2cc(Nc3ccnc(Nc4cccc(CN5CCOCC5)c4)n3)ccc12 category=Fulfilled
compound=Cl.Nc1n[nH]c2cc(-c3ccccn3)ccc12 category=Fulfilled
compound=C[C@@H]1CNc2c(sc3ccc4nc(-c5ccc(O)cc5)ccc4c23)C(=O)N1 category=Fulfilled
compound=O=C(Nc1ccccc1)c1cccc(Oc2ccc3nccn3n2)c1 category="Not fulfilled"
compound=c1ccc(Oc2ccc(Nc3ccnc4ccc(-c5ccccn5)cc34)cc2)cc1 category="Not fulfilled"
compound=CN(c1ccccc1CNc1nc(Nc2ccc3c(c2)CC(=O)N3)ncc1C(F)(F)F)S(C)(=O)=O category=Fulfilled
compound="COc1cc(Nc2nccc(N3CCC(NC(=O)c4cccc(C#N)c4)C3)n2)cc(OC)c1OC (stereo not drawn)" category="Not fulfilled"
compound=Cc1ccc(Nc2ccnc(Nc3ccc4c(c3)CS(=O)(=O)C4)n2)cc1O.Cl category=Fulfilled
compound=Cn1ccc2ncnc(Oc3ccc(NC(=O)Nc4cccc(C(F)(F)F)c4)c(F)c3)c21 category="Not fulfilled"
compound=CS(=O)(=O)Nc1ccc(-c2ccnc3[nH]ccc23)cc1 category=Fulfilled
compound=CC(=O)Nc1nc2cnc(Nc3cc(NC(=O)c4cccc(CC(C)(C)C#N)c4)ccc3C)nc2s1 category="Not fulfilled"
compound=CN(c1cccc(CNc2nc(Nc3ccc4c(c3)CC(=O)N4)ncc2C(F)(F)F)c1)S(C)(=O)=O category=Fulfilled
compound=Nc1nccc(-c2ccc3c(N)n[nH]c3c2)n1 category=Fulfilled
compound=NC(=O)c1ccc(-c2cc3ncnc(SCC(=O)O)c3s2)cc1 category="Not fulfilled"

====

Quick reference for %Inh among some compounds
tested on: VPS34; construct: gene PIK3C3; settings: concentration: 1 μM,replicates: in singlicate; n = 1
VALUE_KIND: %Inh (%)

compound=Cn1ccc2ncnc(Oc3ccc(NC(=O)Nc4cccc(C(F)(F)F)c4)c(Cl)c3)c21 value_kind=%Inh readout_value=0
compound="Cc1nnc(-c2ccc3occ(-c4ccc(S(C)=O)cc4)c3n2)o1 (stereo not drawn)" value_kind=%Inh readout_value=17
compound=CS(=O)(=O)c1cccc(CNc2nc(Nc3ccc4c(c3)[C@@H]3C[C@@H]4CNC3=O)ncc2C(F)(F)F)c1 value_kind=%Inh readout_value=0
compound=C[C@@H](Oc1cc(-n2cnc3cc(-c4cnn(C)c4)ccc32)sc1C(N)=O)c1ccccc1Cl value_kind=%Inh readout_value=74
compound="CC(C(=O)NC1CCN(c2ccnc(Nc3ccc(F)cc3)n2)C1)c1ccc(Cl)cc1 (stereo not drawn)" value_kind=%Inh readout_value=4
compound=O=C1NCCc2[nH]c(-c3ccncc3)cc21 value_kind=%Inh readout_value=25
compound=CN(c1ccccc1CNc1nc(Nc2ccc3c(c2)CC(=O)N3)ncc1C(F)(F)F)S(C)(=O)=O value_kind=%Inh readout_value=0
compound=Cn1ccc2ncnc(Oc3ccc(NC(=O)Nc4cc(C(C)(C)C)on4)c(Cl)c3)c21 value_kind=%Inh readout_value=16
compound=CCN1CCN(CCCC(=O)Nc2n[nH]c3nc(-c4ccc(O)cc4)c(Br)cc23)CC1 value_kind=%Inh readout_value=0
compound=Nc1nccc(-c2ccc3c(N)n[nH]c3c2)n1 value_kind=%Inh readout_value=0
compound=CC(C)c1nc(-c2cccc(NS(=O)(=O)c3ccccc3)c2)c(-c2ccnc(Nc3ccc4c(c3)CN(C)CC4)n2)s1 value_kind=%Inh readout_value=0
compound=O=C(NCC1CC1)c1ccc(-c2cc(C(=O)NC3CC3)ccc2F)cc1 value_kind=%Inh readout_value=16
compound=Cl.Nc1n[nH]c2cc(-c3ccccn3)ccc12 value_kind=%Inh readout_value=10
compound=Cn1cc(-c2cccc3c(N)c(C(N)=O)nnc23)cn1 value_kind=%Inh readout_value=46
compound=Cc1cccc(-c2nc(Nc3ccncc3)c3sccc3n2)n1 value_kind=%Inh readout_value=32
compound=Cn1ccc2ncnc(Oc3ccc(NC(=O)Nc4cnn(C(C)(C)C)c4)c(Cl)c3)c21 value_kind=%Inh readout_value=16
compound=C[C@@H]1CCN(C(=O)N2CCCC2)C[C@@H]1N(C)c1ncnc2[nH]ccc12 value_kind=%Inh readout_value=0
compound=C[C@@H](Oc1cc(-n2cnc3cc(-c4ccncc4)ccc32)sc1C(N)=O)c1ccccc1Cl value_kind=%Inh readout_value=32

====

Quick reference for %Inh among some molecules
test system: TIE2; construct: gene TEK; conditions: concentration: 1 μM,replicates: in singlicate; n = 1
VALUE_KIND: %Inh (%)

molecule="C[C@@H](Oc1cc(-n2cnc3cc(-c4cnn(C)c4)ccc32)sc1C(N)=O)c1ccccc1Cl [GSK580432]" readout_value=82
molecule="CC(C(=O)NC1CCN(c2ccnc(Nc3ccc(F)cc3)n2)C1)c1ccc(Cl)cc1 (centres unmarked) [GSK1379713]" readout_value=0
molecule="Cc1cccc(-c2nc(Nc3ccncc3)c3sccc3n2)n1 [GW869641]" readout_value=38
molecule=C[C@@H]1CNc2c(sc3ccc4nc(-c5ccncc5)ccc4c23)C(=O)N1 readout_value=0
molecule="Nc1nccc(-c2ccc3c(N)n[nH]c3c2)n1 [GSK1034945]" readout_value=0

====

Quick reference for %Inh among some compounds
test system: PIKFYVE; conditions: concentration: 1 μM,replicates: in singlicate; n = 1
VALUE_KIND: %Inh (%)

compound=O=C(NOCC1CC1)c1cc(Br)c(F)c(F)c1Nc1ccc(I)cc1Cl study_system=PIKFYVE unit_text=% readout_value=41
compound=c1ccc(Oc2ccc(Nc3ccnc4ccc(-c5ccccn5)cc34)cc2)cc1 study_system=PIKFYVE unit_text=% readout_value=0
compound=CS(=O)(=O)Nc1ccc(-c2ccnc3[nH]ccc23)cc1 study_system=PIKFYVE unit_text=% readout_value=0
compound=Cn1ccc2ncnc(Oc3ccc(NC(=O)Nc4cc(C(C)(C)C)on4)c(Cl)c3)c21 study_system=PIKFYVE unit_text=% readout_value=19
compound=Cc1ccn2nc(-c3ccc(F)cc3)c(-c3ccncc3)c2c1.Cl study_system=PIKFYVE unit_text=% readout_value=54
compound=Cc1ccc(CC(=O)N2CCc3cc(-c4cn(C)c5ncnc(N)c45)ccc32)cc1 study_system=PIKFYVE unit_text=% readout_value=1
compound=CSc1nccc(-c2c(-c3ccc(F)cc3)ncn2CCCN2CCOCC2)n1.Cl study_system=PIKFYVE unit_text=% readout_value=14
compound=OCCn1cc(-c2cnc3nnn(Cc4ccc5ncccc5c4)c3n2)cn1 study_system=PIKFYVE unit_text=% readout_value=40
compound=O=C(NCC1CC1)c1ccc(-c2cc(C(=O)NC3CC3)ccc2F)cc1 study_system=PIKFYVE unit_text=% readout_value=6

====

Quick reference for %Inh among some molecules
tested on: NDR2; details: concentration: 1 μM,replicates: in singlicate; n = 1
VALUE_KIND: %Inh (%)

molecule="CNC(=O)c1ccccc1Nc1nc(Nc2cccc(CS(C)(=O)=O)c2)ncc1C.O=CO [GSK1520489]" readout_value=80
molecule=OCCn1cc(-c2cnc3nnn(Cc4ccc5ncccc5c4)c3n2)cn1 readout_value=4
molecule=O=C(Nc1ccccc1)c1cccc(Oc2ccc3nccn3n2)c1 readout_value=22
molecule=O=C(Nc1cccc(C(F)(F)F)c1)c1cccc(Oc2ccc3nccn3n2)c1 readout_value=0
molecule="COC(=O)Nc1nc2cc(Oc3ccc(NC(=O)Nc4cc(C(F)(F)F)ccc4Cl)cc3)ccc2[nH]1.Cl [GW697465]" readout_value=0

====

system: ANKK1; conditions: concentration: 1 μM,replicates: in singlicate; n = 1
VALUE_KIND: %Inh

compound=CN(c1cccc(CNc2nc(Nc3ccc4c(c3)CC(=O)N4)ncc2C(F)(F)F)c1)S(C)(=O)=O readout_value=0%
compound="N#Cc1cccc(C(=O)NC2CCN(c3ccnc(Nc4ccc(F)cc4)n3)C2)c1 (stereo not shown) [GSK1379708]" readout_value=0%
compound="CC(C)S(=O)(=O)N1CCN(Cc2ccc3c(c2)nc(NC(=O)c2ccsc2)n3C[C@H](O)c2ccccc2)CC1 [GW635815]" readout_value=19%
compound=O=C(NOCC1CC1)c1cc(Br)c(F)c(F)c1Nc1ccc(I)cc1Cl readout_value=0%
